# Species on record: Rattus norvegicus
# method-summary: Intrinsic activity in rat aorta was determined
# Type: functional
endpoint-name: Intrinsic activity (%)
Reply numerically in %, unit not repeated.

N#C[N-][n+]1ccccc1C1=CC(CF)(CF)Oc2ccc(C(F)(F)C(F)(F)C(F)(F)F)cc21 : 74.6
N#C[N-][n+]1ccccc1C1=CC(CF)(CF)Oc2ccc([N+](=O)[O-])cc21 : 72.7
N#C[N-][n+]1ccccc1C1=CC(CF)(CF)Oc2ccc(C(F)(F)C(F)(F)F)cc21 : 71.9

// O=[N+]([O-])c1ccc2c(c1)C(c1cccc[n+]1[O-])=CC(CF)(CF)O2 : Intrinsic activity value = 66.3
